# PROCEDURE_SUMMARY: High Throughput Screening for Foot and Mouth Disease Virus Antivirals; also: nearly all actives have a fitted effect of over 45% in size
# RUN_CONDITIONS: FMDV antiviral cell-based qHTS; series mostly up to 57.9 µM
The whole screen tested about 410,000 compounds, of which about 5,100 (1.2%) were called active. Not shown: some 8% with an inconclusive outcome. Calls follow the shape of the full dose curve; tested in HEK293T cells. What follows is part of a selection rich in actives, with near analogues and random picks from the rest.
Possible outcomes: active, inactive

INSERT INTO assay_data (compound, discrete_label) VALUES
  ('CC(O)[C@@H](N)C(=O)O (some centres undefined)', 'inactive'),
  ('CN1CCN(c2ncncc2-c2ccc(C(=O)N(C)C)cc2)CC1', 'inactive'),
  ('Cc1ccc(S(=O)(=O)NCCC(=O)Nc2cccc(S(N)(=O)=O)c2)cc1C', 'inactive'),
  ('CN1/C(=C\C=C2\N=C(c3ccc(F)cc3)OC2=O)C(C)(C)c2ccccc21', 'inactive'),
  ('CCCCN1C(=O)c2ccc(C(=O)Nc3ccc(S(=O)(=O)N(C)C)cc3)cc2C1=O', 'active'),
  ('CCN(CCCNC(=O)Cn1ncc2c([nH]c3ccccc32)c1=O)c1cccc(C)c1', 'inactive'),
  ('CO[C@H]1C=CO[C@@]2(C)Oc3c(C)c(O)c4c(O)c(c(/C=N/N5CCN(C)CC5)c(O)c4c3C2=O)NC(=O)/C(C)=C\C=C[C@H](C)[C@H](O)[C@@H](C)[C@@H](O)[C@@H](C)[C@H](OC(C)=O)[C@@H]1C', 'inactive'),
  ('O=C(O)C1CCCN1S(=O)(=O)c1ccc(Br)cc1 (centres undefined)', 'inactive'),
  ('CC(=O)Nc1cccc(OCC(=O)/C=C2\N(C)c3ccccc3C2(C)C)c1', 'active');

====

# PROCEDURE_SUMMARY: High Throughput Screening for Foot and Mouth Disease Virus Antivirals; also: nearly all actives have a fitted effect of over 45% in size
# RUN_CONDITIONS: FMDV antiviral cell-based qHTS; series mostly up to 57.9 µM
About 5,100 (1.2%) of roughly 410,000 compounds were called active. Inconclusive results (about 8%) are left out. Calls follow the shape of the full dose curve; tested in HEK293T cells. The sample holds actives, similar compounds and a random draw of the others, so the mix is not that of the screen.
Possible outcomes: active, inactive

INSERT INTO results (molecule, discrete_label) VALUES
  ('CCC(=O)Nc1ccc2nc(SCC(=O)N3CCc4ccccc43)sc2c1', 'inactive'),
  ('CC(=O)c1ccc(NC(=O)CSc2nc(-c3ccccc3F)nc3c2c(=O)n(C)c(=O)n3C)cc1', 'inactive'),
  ('O=S(=O)(c1ccccc1)N1CCC2(CC1)CN(Cc1nccs1)C2', 'inactive'),
  ('CC(=O)Oc1c2c(c3c(c1CC=C(C)C)O[C@@]14C(=CC5CC1C(C)(C)OC4(C/C=C(\C)C(=O)O)C5=O)C3=O)OC(C)(CCC=C(C)C)C=C2 (some centres undefined)', 'active'),
  ('CCN1CCN(Cc2c(O)ccc3oc(C)c(C(=O)Nc4ccc(C)cc4C)c23)CC1', 'inactive'),
  ('O=C(COc1ccccc1Cl)Nc1ccc2nc(SCC(=O)N3CCCC3)sc2c1', 'active'),
  ('O=C(NCCc1ccccc1)c1ccc2c(c1)N(Cc1ccccc1)C(=O)c1ccccc1S2(=O)=O', 'inactive'),
  ('COc1ccc(NC(=O)Cn2c(=O)n(Cc3ccc(C(=O)NCc4ccccc4Cl)cc3)c(=O)c3ccccc32)cc1', 'inactive'),
  ('Cc1cccc(OCCSc2nc3ccc(NC(=O)COc4ccccc4C)cc3s2)c1', 'inactive');

====

# PROCEDURE_SUMMARY: High Throughput Screening for Foot and Mouth Disease Virus Antivirals; also: nearly all actives have a fitted effect of over 45% in size
# RUN_CONDITIONS: FMDV antiviral cell-based qHTS; series mostly up to 57.9 µM
Among all 410,000 compounds or so, about 5,100 (1.2%) were called active. Inconclusive results (about 8%) are left out. Calls follow the shape of the full dose curve; tested in HEK293T cells. The list comes from a sample in which actives are over-represented; it also holds close analogues and randomly drawn compounds.
Possible outcomes: active, inactive

INSERT INTO results (compound, discrete_label) VALUES
  ('COc1ccc(-c2cc(C(=O)Nc3sc4c(c3C(N)=O)CCCC4)no2)cc1', 'inactive'),
  ('CCCCNC(=O)c1ccc2c(c1)NC(=O)C(C(C)C)N2 (stereo unspecified)', 'inactive'),
  ('COc1cc(=O)n2c(c1C(=O)NCc1ccco1)CCN(Cc1ccccc1)CC2', 'inactive'),
  ('COc1cn(CC(=O)Nc2cccc(C)c2C)c(CN2CCCCC2)cc1=O', 'inactive'),
  ('Cc1ccc2cccc(NC(=O)c3ccc(OC(C)C)cc3)c2n1', 'inactive'),
  ('C=CS(=O)c1sc(Cl)c(N2CCOCC2)c1[N+](=O)[O-] (stereo unspecified)', 'active'),
  ('Cc1ccc(Cl)cc1NC(=O)CSc1nc2ccccc2nc1Cc1ccccc1', 'inactive'),
  ('Fc1ccc2[nH]c3c(N4CCN(Cc5ccc6c(c5)OCO6)CC4)ncnc3c2c1', 'active'),
  ('Oc1c(Cl)cc(Cl)c(Cl)c1Cc1c(O)c(Cl)cc(Cl)c1Cl', 'active'),
  ('CC(=O)Nc1cc(C(=O)N2CCc3c(Cl)cccc3C2)cc2ncn(CCc3ccccn3)c12', 'inactive'),
  ('O=C(CNC(=O)c1ccc(Br)o1)NCC1CCCO1 (stereo unspecified)', 'inactive'),
  ('N#C/C=C/N1CCN(Cc2ccc3c(c2)OCO3)CC1', 'inactive'),
  ('COc1ccc(-c2nn(C)c(=O)c3ccccc23)cc1CNC(=O)C1CCCCC1', 'inactive'),
  ('CCC(C)(C)NC(=O)CN(C(=O)C(=O)Nc1ccc2c(c1)OCCO2)C(C)(C)CC', 'inactive'),
  ('Fc1ccc2[nH]c3c(N4CCSCC4)ncnc3c2c1', 'active'),
  ('O=C(CSc1oc(-c2ccc(F)cc2)nc1S(=O)(=O)c1ccc(Br)cc1)NC1CCCCC1', 'inactive'),
  ('COc1cccc(Cn2c(=O)cnc3cncnc32)c1', 'inactive'),
  ('CC1(C)C=CC(=O)[C@]2(C)C1CC(=O)[C@]1(C)C2CC[C@@]2(C)C(c3ccoc3)OC(=O)C3OC321 (stereo partly specified)', 'inactive'),
  ('Cc1ccc(-c2nc(S(=O)(=O)c3ccc(C)cc3)c(N3CCCCCC3)o2)cc1', 'inactive'),
  ('O=C(CSc1nc2c(c(=O)[nH]1)CN(Cc1ccc3c(c1)OCO3)CC2)Nc1cc(F)ccc1F', 'inactive'),
  ('Cn1cc(-c2nc3cncnc3n(-c3ccccc3)c2=O)c2ccccc21', 'inactive');

====

# PROCEDURE_SUMMARY: High Throughput Screening for Foot and Mouth Disease Virus Antivirals; also: nearly all actives have a fitted effect of over 45% in size
# RUN_CONDITIONS: FMDV antiviral cell-based qHTS; series mostly up to 57.9 µM
Out of some 410,000 compounds screened, about 5,100 (1.2%) were called active. Roughly 8% stayed inconclusive and do not appear here. Calls follow the shape of the full dose curve; tested in HEK293T cells. Many of the other results were omitted from the sample, so actives are more common in it than they were.
Possible outcomes: active, inactive

INSERT INTO assay_data (compound, discrete_label) VALUES
  ('O=c1c(-c2ccc(F)c(F)c2)nc2cncnc2n1-c1ccccc1', 'inactive'),
  ('CCN1CCC(O)(/C=C/c2ccc(C)cc2)C(C(=O)/C=C/c2ccc(C)cc2)C1 (stereo unspecified)', 'active'),
  ('Cc1ccc(-c2cc(C(=O)N/N=C/C=C/c3ccco3)c3ccccc3n2)cc1C', 'active'),
  ('COc1ccccc1CC(=O)Nc1ccc(S(=O)(=O)N2CCCC2)cc1', 'inactive'),
  ('NCCCNCCCCN(CCCN)/[N+]([O-])=N/O', 'inactive'),
  ('Cc1ccc(Cl)c(OCC(=O)N(C)CC(=O)Nc2ccc(N3CCOCC3)cc2)c1', 'inactive'),
  ('Cc1c(O)cc(O)c2c(=O)c(-c3ccc(O)cc3)coc12', 'inactive'),
  ('CCn1c2ccccc2c2cc(NC(=O)COc3ccc(C)cc3C)ccc21', 'inactive'),
  ('CCc1ccc2oc(-c3ccc(C)c(NC(=O)/C=C/c4ccco4)c3)nc2c1', 'inactive'),
  ('COc1cc(C(=O)N2CCC(c3ccncc3)CC2)cc(OC)c1OC', 'inactive'),
  ('Cc1ccccc1C(=O)NCc1nc(-c2ccc(Cl)cc2)no1', 'inactive');

====

# PROCEDURE_SUMMARY: High Throughput Screening for Foot and Mouth Disease Virus Antivirals; also: nearly all actives have a fitted effect of over 45% in size
# RUN_CONDITIONS: FMDV antiviral cell-based qHTS; series mostly up to 57.9 µM
Hit rate of the full screen: of about 410,000 compounds, about 5,100 (1.2%) were called active. Roughly 8% stayed inconclusive and do not appear here. The call rests on the fitted dose curve; tested in HEK293T cells. The sample as a whole holds a higher share of actives than the screen did.
Possible outcomes: Yes (active), No (inactive)

INSERT INTO assay_data (compound, discrete_label) VALUES
  ('Cc1ccc(CN2CCCn3nc(C(=O)NCc4ccccc4Cl)cc3C2=O)cc1', 'No'),
  ('FC(F)(F)c1cccc(-c2cn[nH]c2C2CCCN(Cc3cccn3-c3ccccn3)C2)c1 (stereo not given)', 'No'),
  ('O=C(COC(=O)c1n[nH]c2ccccc12)Nc1ccccc1Br', 'No'),
  ('CCN(Cc1ccncc1)C(=O)[C@@H](CO)c1ccccc1', 'No'),
  ('CCc1ccccc1OCCSc1nc(-c2cccs2)nc2cc(=O)[nH]n12', 'No'),
  ('COc1ccc(CCCOC(Cn2ccnc2)c2ccc(OC)cc2)cc1 (stereo not given)', 'No'),
  ('Cc1cc(C)cc(Oc2nc3c(C)cccn3c(=O)c2/C=C(\C#N)C(=O)NC2CCS(=O)(=O)C2)c1 (stereo not given)', 'Yes'),
  ('CC(C)NC(=O)N1CC[C@@]2(CCCN(C(=O)c3ccco3)C2)C1', 'No'),
  ('CN(C)S(=O)(=O)c1ccc(NC(=O)COC(=O)c2n[nH]c3ccccc23)cc1', 'Yes'),
  ('COc1ccc(CCNc2cc(N3CCN(C(=O)c4ccccc4OC)CC3)ccc2[N+](=O)[O-])cc1OC', 'Yes'),
  ('CCOc1ccc(NC(=O)c2cn(C3CCCCC3)c(=O)c3c2c2ccccc2n3C)cc1', 'No'),
  ('O=C(O)c1c(CNCc2cccc(F)c2)c2ccccc2n1Cc1ccccc1', 'No'),
  ('N#CCCN(C(=O)COC(=O)c1ccc2c(c1)OCCO2)c1ccccc1', 'No'),
  ('Cc1cccc(CNc2cc(-c3ccccc3Cl)ncn2)c1', 'No'),
  ('CN(C)S(=O)(=O)c1ccc(NC(=O)COC(=O)Cn2[nH]c(=O)c3ccccc3c2=O)cc1', 'No'),
  ('O=C(COC(=O)c1ccccc1)c1ccc2c(c1)OCCO2', 'Yes'),
  ('COC1[C@H](OC(N)=O)C(O)[C@H](Oc2ccc3c(O)c(NC(=O)c4ccc(O)c(CC=C(C)C)c4)c(=O)oc3c2C)OC1(C)C (stereo not given in full)', 'No'),
  ('COc1ccc(CCNC(=O)C2CCCN2C(=O)Nc2ccccc2)cc1OC (stereo not given)', 'No'),
  ('CCc1ccccc1NC(=O)N1CCC2(CC1)Oc1ccccc1C(=O)N2Cc1ccccc1F', 'No'),
  ('CC(C)(O)CCC(O)[C@@](C)(O)C1CC[C@]2(O)C3=CC(=O)C4CC(O)C(O)C[C@]4(C)C3CC[C@]12C (stereo not given in full)', 'No');
